Test system: LOX IMVI
Experiment: NCI tumour cell line growth inhibition, 48 h
Calls of active or inactive are those of the source. No stated cut-off is given here; in the data, active = GI50 up to about 1.1 µM and inactive = higher.
Assign a class; possible classes are true (1) = active, false (0) = inactive

QUERY: Called result for "CC(C)(C)C#CI1OC(=O)c2ccccc21"
RESULT: true (1)

QUERY: Called result for "O=C(c1ccco1)N(C(=S)OCCOc1ccccc1)c1ccccc1"
RESULT: false (0)

QUERY: Called result for "COc1ccc(-c2nnc(-c3c(C)n(C)n(-c4ccccc4)c3=O)o2)cc1"
RESULT: false (0)

QUERY: Called result for "Brc1ccc(-c2ccc(-c3ccc(Br)s3)s2)s1"
RESULT: false (0)

QUERY: Called result for CC(=O)OC1CC2c3cccc4c3C(CC2N(C)C1=O)CN4C(=O)c1ccccc1 (configuration not stated)
RESULT: false (0)

QUERY: Called result for COc1cc2c(cc1OC)[C@@H](Nc1ccc(C#N)cc1)C1COC(=O)[C@@H]1C2c1cc(OC)c(O)c(OC)c1 (some centres not stated)
RESULT: true (1)

QUERY: Called result for "Cc1noc(C)c1CCCOC1COc2ccccc2OCCOCCOc2ccccc2OC1"
RESULT: false (0)

QUERY: Called result for "COc1ccc(C2=C3c4cc(OC)c(OC)cc4CCN3C(=S)SS2)cc1OC"
RESULT: false (0)

QUERY: Called result for "Cc1cc2cc(Cl)ccc2nc1C(=O)c1ccccc1"
RESULT: false (0)

QUERY: Called result for "Oc1nc(S)nc2c1CCCN2"
RESULT: false (0)

QUERY: Called result for NC(Cc1nnn[nH]1)C(=O)O (configuration not stated)
RESULT: false (0)

QUERY: Called result for "CC(C)OP(=O)(OC(C)C)c1ccc2c(c1)OCCOCCOCCOCCO2"
RESULT: false (0)

QUERY: Called result for "CCCC(=O)OC[n+]1ccc2c(C)c3[nH]c4ccccc4c3c(C)c2c1"
RESULT: true (1)

QUERY: Called result for "CN(C)CCn1c2ccccc2c2nc3cc4ccccc4cc3nc21"
RESULT: false (0)

QUERY: Called result for "Nc1nc(Nc2ccccc2)sc1C(=O)c1c[nH]c2ccccc12"
RESULT: false (0)

QUERY: Called result for "CN(C)c1nc(N)nc(CS)n1"
RESULT: false (0)

QUERY: Called result for COc1cccc(C2SCC(=O)N2c2ccc(-n3c(-c4ccccc4)nc4ccccc4c3=O)cc2)c1OC (configuration not stated)
RESULT: false (0)

QUERY: Called result for "COc1cccc(Nc2nc(-c3cccs3)nc3ccc(Br)cc23)c1"
RESULT: false (0)

QUERY: Called result for "COc1ccc(C=O)cc1O[Si](C)(C)C(C)(C)C"
RESULT: false (0)

QUERY: Called result for COc1ccc(C2(Cl)C(Cl)(C(F)(F)F)C2(Cl)C(F)(F)F)cc1 (configuration not stated)
RESULT: false (0)

QUERY: Called result for "CN(C)CCCNC(=O)CCNC(=O)c1cc(NC(=O)c2cc(NC(=O)c3cc(NC(=O)c4nc(NC(=O)CCCNC(=O)c5cc(NC(=O)c6cc(NC(=O)c7cc(NC(=O)c8nccn8C)cn7C)cn6C)cn5C)cn4C)cn3C)cn2C)cn1C"
RESULT: false (0)

QUERY: Called result for COC(=O)[C@]1(c2cc3ccccc3n2S(=O)(=O)c2ccccc2)CC2CCC1NC2 (some centres not stated)
RESULT: false (0)

QUERY: Called result for "CN(C)Cc1cc(C(=O)/C=C/c2cccc(Cl)c2)cc(CN(C)C)c1O"
RESULT: false (0)

QUERY: Called result for COc1cc(C2c3cc4c(cc3OC(NCCc3ccccc3)C2C)OCO4)cc(OC)c1OC (configuration not stated)
RESULT: true (1)

QUERY: Called result for COc1cc(OC2OC(COC(=O)c3cc(O)c(O)c(O)c3)C(O)C(O)C2O)ccc1O (configuration not stated)
RESULT: false (0)

QUERY: Called result for CC1(C)CCc2cc3c(cc2O1)OCC1c2cc4c(cc2OC31)OCO4 (configuration not stated)
RESULT: false (0)

QUERY: Called result for CC1(c2nc3ccccc3[nH]2)CCC(CO)C(C)(C)O1 (configuration not stated)
RESULT: false (0)

QUERY: Called result for "C/C(=N/O)c1sc(-c2nc(C)c(/C(C)=N\O)s2)nc1C"
RESULT: false (0)

QUERY: Called result for CCCCCCC1CC(=O)C1(Cl)Cl (configuration not stated)
RESULT: false (0)

QUERY: Called result for "CCc1nc2cc(F)ccc2[nH]c1=O"
RESULT: false (0)

QUERY: Called result for "CCOC(=O)c1c(C)n(Cc2ccc(Cl)cc2Cl)c2c1cc(O)c1[nH]c3c(c12)CCCC3"
RESULT: false (0)

QUERY: Called result for "C=CCN1C(=O)/C(=C/c2ccc(C)cc2)NC1=S"
RESULT: false (0)

QUERY: Called result for "O=C(O)CCC(=O)N1C/C(=C\c2ccccc2)C(=O)/C(=C/c2ccccc2)C1"
RESULT: false (0)

QUERY: Called result for "CN(CCNC(=O)c1nn(-c2ccc(Cl)cc2Cl)c2c1Cc1ccccc1-2)CCNC(=O)c1nn(-c2ccc(Cl)cc2Cl)c2c1Cc1ccccc1-2"
RESULT: false (0)

QUERY: Called result for "Cc1c(CCl)c(=O)oc2c(C)c3occ(CCl)c(=O)c3cc12"
RESULT: false (0)

QUERY: Called result for OC1C2[C@@H](O)CCCN2C[C@@H](O)[C@H]1O (some centres not stated)
RESULT: false (0)

QUERY: Called result for Cc1ccc(NCC2CC/C(=C\c3ccc(Cl)cc3)C2=O)cc1 (configuration not stated)
RESULT: false (0)

QUERY: Called result for COc1cc(OC)c2c(c1)OC(c1ccccc1)CC2=O (configuration not stated)
RESULT: false (0)

QUERY: Called result for COc1ccc(-c2c3c(n(C4OC(COC(C)=O)C(OC(C)=O)C(OC(C)=O)C4OC(C)=O)c(=S)c2C#N)CCCC3)cc1 (configuration not stated)
RESULT: false (0)

QUERY: Called result for "CCc1ccc(/N=C\c2cc(OC)c(OC)c(OC)c2)cc1"
RESULT: false (0)

QUERY: Called result for C/C=C/C=N/N(C(=O)c1cc([N+](=O)[O-])cc([N+](=O)[O-])c1)C1=NN=C(c2ccccc2)C(c2ccccc2)N1 (configuration not stated)
RESULT: false (0)

QUERY: Called result for "CCOc1ccc(/N=N/c2ccc3oc(=O)c(C(=O)Nc4ccc(OC)cc4)cc3c2)cc1"
RESULT: false (0)
